- assay_info: Solubility in PBS
- Type: physicochemical
- cond: Solubility (uM)
Here the recorded Solubility is given for each entry.
Numeric only. Scale: µM

Previously resolved entries follow.
CC(=O)N1CCC[C@]12CC=CCCCC1(CCCC=CCCCCCC[C@@](C)(C(=O)N[C@@H](Cc3ccccc3C(N)=O)C(=O)N[C@@H](Cc3csc4ccccc34)C(=O)N[C@@H](CCC(N)=O)C(N)=O)NC(=O)[C@H](C(C)C)NC(=O)[C@H](Cc3ccccc3)NC(=O)[C@H](C)NC(=O)[C@H](C)NC(=O)[C@H](CC(=O)O)NC(=O)[C@H](CC(=O)O)NC1=O)NC(=O)[C@H](C)NC(=O)[C@H](CC(=O)O)NC2=O (stereo partly drawn)	48
CC[C@H](C)[C@@H]1NC(=O)[C@H](CC(=O)O)NC(=O)[C@]2(CC=CCCCC3(CCCC=CCCCCCC[C@@](C)(C(=O)N[C@@H](Cc4ccccc4)C(=O)N[C@@H](Cc4csc5ccccc45)C(=O)N[C@@H](CCC(N)=O)C(N)=O)NC(=O)[C@H](CCC(N)=O)NC(=O)[C@H](c4ccccc4)NC(=O)[C@H](C)NC(=O)[C@H](C)NC(=O)[C@H](CCC(=O)O)NC(=O)[C@H](CC(=O)O)NC3=O)NC1=O)CCCN2C(C)=O (stereo partly drawn)	43

Next item in the queue.
In: Record request: Solubility value, item CC(=O)N1CCC[C@]12CC=CCCCC1(CCCC=CCCCCCC[C@@](C)(C(=O)N[C@@H](Cc3ccccc3)C(=O)N[C@@H](Cc3csc4ccccc34)C(=O)N[C@H](CO)C(N)=O)NC(=O)[C@H](CC(N)=O)NC(=O)[C@H](Cc3ccccc3)NC(=O)[C@H](C)NC(=O)[C@H](C)NC(=O)[C@H](CCC(=O)O)NC(=O)[C@H](CC(=O)O)NC1=O)NC(=O)[C@H](CC(C)C)NC(=O)[C@H](CC(=O)O)NC2=O (stereo partly drawn)
Out: 49

* * *

The molecules listed here are annotated with their IC50.
- tested_system: beta-catenin/TCF4 engagement (Homo sapiens, UniProt P35222)
- Construct: expressed in transfected cells; host or cells: HEK293
- Sequence (P35222 whole entry): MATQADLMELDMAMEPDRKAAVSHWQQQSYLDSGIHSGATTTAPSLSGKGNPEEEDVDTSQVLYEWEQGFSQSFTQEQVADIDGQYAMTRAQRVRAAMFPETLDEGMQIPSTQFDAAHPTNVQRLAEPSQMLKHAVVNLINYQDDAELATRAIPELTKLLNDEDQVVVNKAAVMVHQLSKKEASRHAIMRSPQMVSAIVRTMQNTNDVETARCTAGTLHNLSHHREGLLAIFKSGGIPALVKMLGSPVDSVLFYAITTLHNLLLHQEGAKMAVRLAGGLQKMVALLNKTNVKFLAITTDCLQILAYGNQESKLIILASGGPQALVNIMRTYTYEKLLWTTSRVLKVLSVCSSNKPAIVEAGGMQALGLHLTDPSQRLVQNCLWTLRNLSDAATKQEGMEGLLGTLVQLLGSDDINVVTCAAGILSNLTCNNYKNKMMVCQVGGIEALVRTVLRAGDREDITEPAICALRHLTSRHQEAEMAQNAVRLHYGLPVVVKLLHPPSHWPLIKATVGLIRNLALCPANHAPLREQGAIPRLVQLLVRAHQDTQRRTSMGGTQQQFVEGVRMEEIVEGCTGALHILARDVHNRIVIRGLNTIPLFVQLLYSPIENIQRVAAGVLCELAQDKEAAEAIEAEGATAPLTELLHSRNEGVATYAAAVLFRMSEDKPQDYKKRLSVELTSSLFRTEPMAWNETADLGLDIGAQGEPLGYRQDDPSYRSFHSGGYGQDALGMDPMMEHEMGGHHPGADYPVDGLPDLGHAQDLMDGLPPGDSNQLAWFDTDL
- assay_info: Nano-BRET target engagement assay (B-cat-Halo & TCF4-Luc in HEK293 cells)
- Format: cell-based
- cond: read-out: NanoBRET Abs IC50

Consider the following illustrative entries.
CC(=O)N1CCC[C@]12CC=CCCCC1(CCCC=CCCCOC(=O)N3CC[C@@](C(=O)N[C@@H](Cc4cscn4)C(=O)N[C@@H](Cc4csc5ccccc45)C(=O)N[C@@H](CCC(N)=O)C(N)=O)(C3)NC(=O)[C@H](CC(N)=O)NC(=O)[C@H](Cc3ccccc3)NC(=O)[C@H](C)NC(=O)[C@H](C)NC(=O)[C@H](CC(=O)O)NC(=O)[C@H](CC(=O)O)NC1=O)NC(=O)[C@H](CC(C)(C)C)NC(=O)[C@H](CC(=O)O)NC2=O (stereo partly drawn)	> 20 µM
CC(=O)N1CCC[C@]12CC=CCCCC1(CCCC=CCCCOC(=O)N3CC[C@@](C(=O)N[C@@H](Cc4ccsc4)C(=O)N[C@@H](Cc4c[nH]c5ccccc45)C(=O)N[C@@H](Cc4c[nH]cn4)C(N)=O)(C3)NC(=O)[C@H](CC(N)=O)NC(=O)[C@H](Cc3ccccc3)NC(=O)[C@H](C)NC(=O)[C@H](C)NC(=O)[C@H](CC(=O)O)NC(=O)[C@H](CC(=O)O)NC1=O)NC(=O)[C@H](CC(C)(C)C)NC(=O)[C@H](CC(=O)O)NC2=O (stereo partly drawn)	> 20 µM

In: Any idea what its IC50 is? The molecule is CC(=O)N1CCC[C@]12CC=CCCCC1(CCCC=CCCCOC(=O)N3CC[C@@](C(=O)N[C@@H](Cc4ccccc4)C(=O)N[C@@H](Cc4csc5ccccc45)C(=O)N[C@@H](CCC(N)=O)C(N)=O)(C3)NC(=O)[C@H](CC(C)C)NC(=O)[C@H](Cc3ccccc3)NC(=O)[C@H](C)NC(=O)[C@H](C)NC(=O)[C@H](CC(=O)O)NC(=O)[C@H](CC(=O)O)NC1=O)NC(=O)[C@H](CC(C)(C)C)NC(=O)[C@H](CC(=O)O)NC2=O (stereo partly drawn)
Out: 10.5 µM

* * *

- tested_system: full-length beta-Catenin (Uniprot ID P35222) (Homo sapiens, UniProt P35222)
- Construct: 10 nM full-length beta-Catenin (Uniprot ID P35222)
- Sequence (P35222 whole entry): as above
- assay_info: Fluorescence polarization IC50 (beta-catenin / 5FAM-TCF4 10-53 competition)
- Type: binding
- cond: fluorescence polarization; read-out: beta-Catenin FP IC50
measurement_kind: pIC50
Please note pIC50 is a logarithmic value: minus log10 of concentration in mol/L. Answer with that number alone.

CC(=O)N1CCC[C@]12CC=CCCCC1(CCCC=CCCCCCC[C@@](C)(C(=O)N[C@@H](Cc3ccccc3C(F)(F)F)C(=O)N[C@@H](Cc3csc4ccccc34)C(=O)N[C@@H](CCC(N)=O)C(N)=O)NC(=O)[C@H](CC(N)=O)NC(=O)[C@H](Cc3ccccc3)NC(=O)[C@H](C)NC(=O)[C@H](C)NC(=O)[C@H](CC(=O)O)NC(=O)[C@H](CC(=O)O)NC1=O)NC(=O)[C@H](CC(C)(C)C)NC(=O)[C@H](CC(=O)O)NC2=O (some centres unmarked) [I-1396]	7.48

Turning now to a further record.
In: Bench note: what pIC50 did CC(=O)N1CCC[C@]12CC=CCCCC1(CCCC=CCCCOC(=O)N3CC[C@@](C(=O)N[C@@H](Cc4ccsc4)C(=O)N[C@@H](Cc4csc5ccccc45)C(=O)N[C@@H](CCC(N)=O)C(N)=O)(C3)NC(=O)[C@H](CC(C)C)NC(=O)[C@H](Cc3ccccc3)NC(=O)[C@H](C)NC(=O)[C@H](C)NC(=O)[C@H](Cc3cn(CC(=O)O)c4ccccc34)NC(=O)[C@H](CC(=O)O)NC1=O)NC(=O)[C@H](CC(C)(C)C)NC(=O)[C@H](CC(=O)O)NC2=O (some centres unmarked) [I-1445] show?
Out: 7.89

* * *

- assay_info: Solubility in PBS
- Format: physicochemical
- Procedure: After ultracentrifugation of the PBS solution, the supernatant was analyzed by HPLC and compared to an HPLC injection 50 μM peptide DMSO solution. Solubility was determined by: [(Area of PBS peak)/(Area of DMSO peak)]*50 uM.
measurement_kind: Solubility
Please don't drop the unit; write it after the number.

CC(=O)N1CCC[C@]12CC=CCCCC1(CCCC=CCCCOC(=O)N3CC[C@@](C(=O)N[C@@H](Cc4ccsc4)C(=O)N[C@@H](Cc4csc5ccccc45)C(=O)N[C@@H](CCC(N)=O)C(N)=O)(C3)NC(=O)[C@H](CC(N)=O)NC(=O)[C@H](Cc3ccccc3)NC(=O)[C@H](C)NC(=O)[C@H](C)NC(=O)[C@H](CC(=O)O)NC(=O)[C@H](CCO)NC1=O)NC(=O)[C@H](CC(C)(C)C)NC(=O)[C@H](CC(=O)O)NC2=O (some centres unmarked)	50 µM

Now for the molecule whose Solubility we want.
In: So what's the measured Solubility for this one? CC(=O)N1CCC[C@]12CC=CCCCC1(CCCC=CCCCOC(=O)N3CC[C@@](C(=O)N[C@@H](Cc4cccc(C#N)c4)C(=O)N[C@@H](Cc4csc5ccccc45)C(=O)N[C@@H](CCC(N)=O)C(N)=O)(C3)NC(=O)[C@H](CC(C)C)NC(=O)[C@H](Cc3ccccc3)NC(=O)[C@H](C)NC(=O)[C@H](C)NC(=O)[C@H](CC(=O)O)NC(=O)[C@H](CC(=O)O)NC1=O)NC(=O)[C@H](CC(C)(C)C)NC(=O)[C@H](CC(=O)O)NC2=O (some centres unmarked)
Out: 50 µM

* * *

- tested_system: beta-catenin/TCF4 engagement (Homo sapiens, UniProt P35222)
- Construct: expressed in transfected cells; host or cells: HEK293
- assay_info: Nano-BRET target engagement assay (B-cat-Halo & TCF4-Luc in HEK293 cells)
- Format: cell-based
- cond: HEK293, 10 uM; read-out: NanoBRET % inh @ 10 uM
measurement_kind: inhibition at 10 µM (%)
Respond with the bare value in %.

CC(=O)N1CCC[C@]12CC=CCCCC1(CCCC=CCCCOC(=O)N3CC[C@@](C(=O)N[C@@H](Cc4ccsc4)C(=O)N[C@@H](Cc4cn(C)c5ccccc45)C(=O)N[C@@H](Cc4c[nH]cn4)C(N)=O)(C3)NC(=O)[C@H](CC(N)=O)NC(=O)[C@H](Cc3ccccc3)NC(=O)[C@H](C)NC(=O)[C@H](C)NC(=O)[C@H](CC(=O)O)NC(=O)[C@H](CC(=O)O)NC1=O)NC(=O)[C@H](CC(C)(C)C)NC(=O)[C@H](CC(=O)O)NC2=O (stereo partly drawn)	0.9
CC(=O)N1CCC[C@]12CC=CCCCC1(CCCC=CCCCOC(=O)N3CC[C@@](C(=O)N[C@@H](Cc4ccsc4)C(=O)N[C@@H](Cc4csc5ccccc45)C(=O)N[C@@H](Cc4c[nH]cn4)C(=O)N[C@@H](C)C(N)=O)(C3)NC(=O)[C@H](CC(N)=O)NC(=O)[C@H](Cc3ccccc3)NC(=O)[C@H](C)NC(=O)[C@H](C)NC(=O)[C@H](CC(=O)O)NC(=O)[C@H](CC(=O)O)NC1=O)NC(=O)[C@H](CC(C)(C)C)NC(=O)[C@H](CC(=O)O)NC2=O (stereo partly drawn)	30.8

Now turn to the next molecule.
In: Recorded inhibition at 10 µM of CC(=O)N1CCC[C@]12CC=CCCCC1(CCCC=CCCCOC(=O)N3CC[C@@](C(=O)N[C@@H](Cc4ccsc4)C(=O)N[C@@H](Cc4csc5ccccc45)C(=O)N[C@@H](CCC(N)=O)C(=O)N[C@@H](C)C(N)=O)(C3)NC(=O)[C@H](CC(N)=O)NC(=O)[C@H](Cc3ccccc3)NC(=O)[C@H](C)NC(=O)[C@H](C)NC(=O)[C@H](CC(=O)O)NC(=O)[C@H](CC(=O)O)NC1=O)NC(=O)[C@H](CC(C)(C)C)NC(=O)[C@H](CC(=O)O)NC2=O (stereo partly drawn) , please.
Out: 37.8
